- protocol_text: TOX21_PR_BLA_Followup_Agonist_viability: Viability Assessment in the Tox21 HEK293 Progesterone Receptor (PR) Agonism Beta-lactamase Follow-Up Assay (AID 2283935);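 note: cells exposed to compound for 16 hr at 37 °C; signal loss means lower viability so actives are cytotoxic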
Inconclusive results are not listed. Activity calls are given as the source filed them. Rule for the calls: active = hit-call score of the fitted dose curve at least 0.9, where 1 is the maximum; inconclusive = response in the unintended direction; inactive = score below 0.9.
Labels: 1.0 for active, 0.0 for inactive

| compound | label |
| --- | --- |
| C[C@]12CCC(=O)C=C1CC[C@@H]1[C@@H]2CC[C@@]2(C)[C@H]1CC[C@]2(C)O | 0.0 |
| ClC(Cl)=C(c1ccc(Cl)cc1)c1ccc(Cl)cc1 | 0.0 |
| Clc1ccc(C(c2ccccc2Cl)C(Cl)(Cl)Cl)cc1 (stereo unspecified) | 1.0 |
| C[C@]12CCC(=O)C=C1CC[C@@H]1[C@@H]2CC[C@]2(C)C(=O)CC[C@@H]12 | 0.0 |
| CC(C)(c1ccccc1)c1ccc(O)cc1 | 0.0 |
| CCC(=O)O[C@H]1CC[C@H]2[C@@H]3CCC4=CC(=O)CC[C@]4(C)[C@H]3CC[C@]12C | 0.0 |
